Kindly state pIC50 for each of the entries shown.
target: human Nav1.8 (Homo sapiens, UniProt Q9Y5Y9); experiment: SyncroPatch384PE assay (automated patch clamp); type: cell-based; conditions: inactivated state block (P2 measurement), human Nav1.8/b3 CHO cells, read-out: P2 IC50
Sequence (Q9Y5Y9 whole entry): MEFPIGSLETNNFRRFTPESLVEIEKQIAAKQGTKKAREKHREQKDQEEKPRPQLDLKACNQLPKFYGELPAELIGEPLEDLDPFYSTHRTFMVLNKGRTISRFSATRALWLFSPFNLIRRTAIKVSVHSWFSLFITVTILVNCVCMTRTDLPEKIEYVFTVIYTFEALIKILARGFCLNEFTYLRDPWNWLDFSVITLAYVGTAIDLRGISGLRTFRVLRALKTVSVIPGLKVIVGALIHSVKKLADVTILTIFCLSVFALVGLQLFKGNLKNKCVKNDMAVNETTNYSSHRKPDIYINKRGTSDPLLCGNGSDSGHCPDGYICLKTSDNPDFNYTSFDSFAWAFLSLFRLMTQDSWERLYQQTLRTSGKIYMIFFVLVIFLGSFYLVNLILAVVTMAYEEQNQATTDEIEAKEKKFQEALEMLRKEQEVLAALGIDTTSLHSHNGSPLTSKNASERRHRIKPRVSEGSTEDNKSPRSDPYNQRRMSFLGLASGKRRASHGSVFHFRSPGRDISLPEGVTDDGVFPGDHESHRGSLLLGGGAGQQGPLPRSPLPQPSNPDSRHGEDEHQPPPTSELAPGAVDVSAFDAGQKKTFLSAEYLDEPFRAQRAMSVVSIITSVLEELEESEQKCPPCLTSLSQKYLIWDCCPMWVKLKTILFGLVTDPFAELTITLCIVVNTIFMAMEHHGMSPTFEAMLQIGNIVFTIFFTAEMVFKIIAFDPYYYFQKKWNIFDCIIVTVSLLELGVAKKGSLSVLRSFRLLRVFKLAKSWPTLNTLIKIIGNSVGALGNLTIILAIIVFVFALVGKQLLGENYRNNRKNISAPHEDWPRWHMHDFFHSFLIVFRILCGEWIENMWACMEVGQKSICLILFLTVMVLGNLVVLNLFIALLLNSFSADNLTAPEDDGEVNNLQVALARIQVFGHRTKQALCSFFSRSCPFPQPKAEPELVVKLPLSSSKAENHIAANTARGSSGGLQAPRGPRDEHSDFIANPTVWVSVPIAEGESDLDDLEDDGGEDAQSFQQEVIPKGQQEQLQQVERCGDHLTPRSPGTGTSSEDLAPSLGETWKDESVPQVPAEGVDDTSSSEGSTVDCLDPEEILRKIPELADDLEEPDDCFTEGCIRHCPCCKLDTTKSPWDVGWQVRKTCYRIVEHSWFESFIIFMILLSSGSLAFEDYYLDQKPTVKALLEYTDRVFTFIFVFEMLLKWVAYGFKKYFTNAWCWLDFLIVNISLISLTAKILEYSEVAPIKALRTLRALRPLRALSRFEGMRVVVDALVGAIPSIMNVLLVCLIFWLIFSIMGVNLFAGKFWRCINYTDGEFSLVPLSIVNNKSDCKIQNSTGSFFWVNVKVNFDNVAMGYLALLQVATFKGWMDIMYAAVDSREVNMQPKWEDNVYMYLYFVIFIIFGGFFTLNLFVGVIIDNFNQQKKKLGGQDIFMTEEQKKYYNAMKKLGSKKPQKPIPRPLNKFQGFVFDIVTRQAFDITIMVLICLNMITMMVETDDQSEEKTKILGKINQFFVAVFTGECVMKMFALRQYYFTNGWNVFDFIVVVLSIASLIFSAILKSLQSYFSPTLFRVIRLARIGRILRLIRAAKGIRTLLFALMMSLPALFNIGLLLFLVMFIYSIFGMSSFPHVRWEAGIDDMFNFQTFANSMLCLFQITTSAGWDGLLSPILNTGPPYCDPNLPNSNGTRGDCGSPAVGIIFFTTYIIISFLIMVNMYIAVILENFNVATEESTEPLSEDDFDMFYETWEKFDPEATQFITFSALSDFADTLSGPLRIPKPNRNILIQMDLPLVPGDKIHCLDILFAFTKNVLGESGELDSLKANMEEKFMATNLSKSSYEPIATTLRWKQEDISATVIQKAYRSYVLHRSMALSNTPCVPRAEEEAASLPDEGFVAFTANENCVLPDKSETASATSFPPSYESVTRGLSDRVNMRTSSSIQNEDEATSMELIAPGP
pIC50: −log10 of the molar value.

Field: example entries. Status: answers known.
{"columns": ["molecule", "subjectOfTest", "pIC50"],
 "data": [
  ["Cc1c(C2CC2)nnc(N2CCCC(F)(F)CC2)c1C(=O)Nc1cccc(S(C)(=N)=O)c1 (centres unmarked)", "human Nav1.8 (Homo sapiens, UniProt Q9Y5Y9)", "< 6.70"],
  ["Cc1c(Cl)c(C(F)(F)F)nc(N2CCCC(F)(F)CC2)c1C(=O)Nc1cccc(S(C)(=N)=O)c1 (centres unmarked)", "human Nav1.8 (Homo sapiens, UniProt Q9Y5Y9)", "≥ 8.30"],
  ["Cc1c(Br)c(C(F)(F)F)nc(N2CCCC(F)(F)CC2)c1C(=O)Nc1cccc([S@](C)(=N)=O)c1", "human Nav1.8 (Homo sapiens, UniProt Q9Y5Y9)", "≥ 8.30"],
  ["Cc1c(C(=O)Nc2cccc([S@@](C)(=O)=NC(=O)[C@@H](C)O)c2)c(N2CCCC(F)(F)CC2)nc(C(F)(F)F)c1-c1cnn(C)c1", "human Nav1.8 (Homo sapiens, UniProt Q9Y5Y9)", "≥ 8.30"],
  ["CNCC(=O)N=[S@](C)(=O)c1cccc(NC(=O)c2c(N3CCCC(F)(F)CC3)nc(C(F)(F)F)c(C#N)c2C)c1", "human Nav1.8 (Homo sapiens, UniProt Q9Y5Y9)", "≥ 8.30"],
  ["Cc1c(-c2ccncc2)cnc(N2CCCC(F)(F)CC2)c1C(=O)Nc1cccc(S(C)(=N)=O)c1 (centres unmarked)", "human Nav1.8 (Homo sapiens, UniProt Q9Y5Y9)", "7.00 to 7.30"],
  ["Cc1c(-c2cnn(C3CC3)c2)cnc(N2CCCC(F)(F)CC2)c1C(=O)Nc1cccc([S@](C)(=N)=O)c1", "human Nav1.8 (Homo sapiens, UniProt Q9Y5Y9)", "7.30 to 8.30"],
  ["Cc1cc(C(F)(F)F)nc(N2CCCC(F)(F)CC2)c1C(=O)Nc1cccc([S@](C)(=N)=O)c1", "human Nav1.8 (Homo sapiens, UniProt Q9Y5Y9)", "≥ 8.30"]
]}

List reported pIC50 for each of these molecules:
1. Cc1ccc(-c2nnc(N3CCCC(F)(F)CC3)c(C(=O)Nc3cccc([S@](C)(=N)=O)c3)c2C)cc1
2. Cc1c(C(F)(F)F)cnc(N2CCCC(F)(F)CC2)c1C(=O)Nc1cccc([S@@](C)(=O)=NC(=O)CN)c1
3. Cc1c(-c2cnn(C(C)C)c2)cnc(N2CCCC(F)(F)CC2)c1C(=O)Nc1cccc([S@](C)(=N)=O)c1

**Result**
1: 7.30 to 8.30; 2: ≥ 8.30; 3: 7.30 to 8.30

----------
Kindly state IC50 for each of the entries shown.
Biological target: UniProtKB Q9Y5Y9
Experiment: SyncroPatch384PE assay (automated patch clamp)
Assay type: cell-based
Conditions: resting state block (P1 measurement), human Nav1.8/b3 CHO cells, read-out: P1 IC50
Protocol: Compounds were tested on recombinant human Nav1.8/b3 stably transfected CHO cells using the SyncroPatch384PE system (Nanion Technologies), an automated patch clamp device. […] Whole cell patch clamp recordings were conducted according to Nanion's standard procedure for SyncroPatch384PE®. […] The potency of the compounds was assessed on two read-outs, resting state block (P1 measurement) or inactivated state block (P2 measurement) to obtain IC50 values. […]
Structures can show the parent of a compound that is named as a salt.

Field: example entries. Status: answers known.
{"columns": ["molecule", "result"],
 "data": [
  ["Cc1c(C#N)c(C(F)(F)F)nc(N2CCCC(F)(F)CC2)c1C(=O)Nc1cccc([S@@](C)(=O)=NC(=O)C2CNC2)c1 [Example 57, formate]", "≤ 5 nM"],
  ["C[S@](=N)(=O)c1cccc(NC(=O)c2c(N3CCCC(F)(F)CC3)cnc(C(F)(F)F)c2Cl)c1", "5 to 50 nM"],
  ["Cc1c(C#CCO)cnc(N2CCCC(F)(F)CC2)c1C(=O)Nc1cccc([S@](C)(=N)=O)c1", "> 200 nM"],
  ["CNCCN=[S@](C)(=O)c1cccc(NC(=O)c2c(N3CCCC(F)(F)CC3)ncc(Br)c2C)c1 [Example 211, 2,2,2-trifluoroacetate]", "≤ 5 nM"],
  ["CNS(=N)(=O)c1cc(NC(=O)c2cc(C(F)(F)F)c(C)nc2N2CCCC(F)(F)CC2)ccn1 (stereo not shown)", "≤ 5 nM"]
]}

List reported IC50 for each of these molecules:
1. Cc1c(Cl)c(-c2cnn(C)c2)nc(N2CCCC(F)(F)CC2)c1C(=O)Nc1cccc([S@](C)(=N)=O)c1
2. Cc1c(-c2ccc(F)cn2)cnc(N2CCCC(F)(F)CC2)c1C(=O)Nc1cccc(S(C)(=N)=O)c1 (stereo not shown)

**Result**
["≤ 5 nM", "50 to 100 nM"]
